molecular target: T1, human VEGF (human, UniProt P15692-4 27-191); assay: ELISA and BIAcore
T1 construct: Bought recombinant protein; also called hVEGF; human VEGF-A
T1 sequence (P15692 other isoform, or with tags, fused parts or gaps limits assumed): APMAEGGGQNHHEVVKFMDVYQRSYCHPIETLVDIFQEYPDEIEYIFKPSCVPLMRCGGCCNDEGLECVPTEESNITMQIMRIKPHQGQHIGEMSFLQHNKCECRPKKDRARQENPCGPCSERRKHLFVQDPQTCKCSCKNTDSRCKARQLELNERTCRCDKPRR
I'd be grateful if you could share measured fold affinity over mother clone F for these entries.

Binder	Property name	Measured value
HF2-16 (antibody, V domains shown) VH: EVQLVESGGGLVQPGGSLRLSCAASGFRIRSHGMQWVRQAPGKGLEYVAGISSDGSWVKVAAAVEGRFTISRDDSKNTAYLQMNSLRAEDTAVYYCARDFSTGYGADSIDAWGQGTLVTVSS VL: DIQMTQSPSSLSASVGDRVTITCSGGSIEPLGYGWYQQKPGKAPKTLIYWDDKRPSGVPSRFSGSRSGTDFTLTISSLQPEDFATYYCGAWEYSGGVGIFGQGTKVEIK	fold affinity over mother clone F	≥ 10 times
HF2-25 (antibody, V domains shown) VH: EVQLVESGGGLVQPGGSLRLSCAASYMEYRSHGMQWVRQAPGKGLEYVAGISSDGSWFRMNAAVEGRFTISRDDSKNTAYLQMNSLRAEDTAVYYCARDFSTGYGADSIDAWGQGTLVTVSS VL: DIQMTQSPSSLSASVGDRVTITCSGGSNFPMGYGWYQQKPGKAPKTLIYWDDKRPSGVPSRFSGSRSGTDFTLTISSLQPEDFATYYCGAWEYSGGVGIFGQGTKVEIK	fold affinity over mother clone F	≥ 10 times

Just so you know, measured fold affinity over mother clone F for HF2-22 (antibody, V domains shown) VH: EVQLVESGGGLVQPGGSLRLSCAASGFRIRSHGMQWVRQAPGKGLEYVAGISSDGSWFRVAAAVEGRFTISRDDSKNTAYLQMNSLRAEDTAVYYCARDFSTGYGADSIDAWGQGTLVTVSS VL: DIQMTQSPSSLSASVGDRVTITCSGGSTAGVGYGWYQQKPGKAPKTLIYWDDKRPSGVPSRFSGSRSGTDFTLTISSLQPEDFATYYCGAWEYSGGVGIFGQGTKVEIK came out at ≥ 10 times
